Numbers sourced from ChEMBL document CHEMBL4742400.

species on record: Homo sapiens; assay: Selectivity index, ratio of inhibition of full length human MKK7 (M1 to R419 residues) expressed in mammalian expression system assessed as residual percent of control binding at 100 nM relative to control to inhibition of partial length human MKK4 (S84 to D399 residues) expressed in mammalian expression system assessed as residual percent of control binding at 100 nM relative to control
readout_type: Selectivity ratio

Below, each entry is followed by its recorded Selectivity ratio result.
| compound | Selectivity ratio |
| --- | --- |
| CCCS(=O)(=O)Nc1ccc(F)c(C(=O)c2n[nH]c3ncc(-c4cccc(C(F)(F)F)c4)cc23)c1F | < 3 |
| CCCS(=O)(=O)Nc1ccc(F)c(C(=O)c2n[nH]c3ncc(-c4ccc(C(=O)NCC(O)CO)cc4)cc23)c1F (centres undefined) | > 30 |
| CCCS(=O)(=O)Nc1ccc(F)c(Cc2n[nH]c3ncc(-c4ccc(Cl)cc4)cc23)c1F | < 3 |

Alright, here's another compound for you.
Documented Selectivity ratio of CCCS(=O)(=O)Nc1ccc(F)c([S+]([O-])c2n[nH]c3ncc(-c4ccc(Cl)cc4)cc23)c1F (centres undefined) : < 3
